- ASSAY_TEXT: Tissue distribution study in mice, 20 mg/kg i.p.
- Type: in vivo, C57BL/6 J mice
- CONDITION_NOTES: male, C57BL/6 J, mouse, plasma, ip, 20 mg/kg, Plasma, 1 h, IP 20 mg/kg, read-out: Plasma or Tissue Homogenate Conc (individual animals)
MEASUREMENT_KIND: concentration at 1 h (ng/mL)
Numbers only, in ng/mL.

Lab note: measured concentration at 1 h of c1ccc(-c2nnc(-c3ccccn3)nc2NC2CCCCC2)cc1 was 7700

----------
- ASSAY_TEXT: Tissue distribution study in mice, 20 mg/kg i.p.
- Assay type: in vivo, C57BL/6 J mice
- CONDITION_NOTES: male, C57BL/6J, muscle/plasma; Muscle, 1 h; mouse, IP 20 mg/kg; read-out: Mean Tissue/ Plasma Conc Ratio
MEASUREMENT_KIND: Kp at 1 h
One number for each entry.

Lab note: measured Kp at 1 h of c1ccc(-c2nnc(-c3ccccn3)nc2NC2CCCCC2)cc1 was 0.17

----------
- ASSAY_TEXT: Mouse pharmacokinetics, 10 mg/kg i.p.
- Assay type: in vivo, CD-1 mice
- CONDITION_NOTES: CD-1, plasma, ip, 10 mg/kg intraperitoneal, read-out: terminal half-life (t1/2) (converted)
MEASUREMENT_KIND: half-life (h)
Give bare numbers, in h.

Lab note: measured half-life of c1ccc(-c2nnc(-c3ccccn3)nc2NC2CCCCC2)cc1 was 4.64

----------
- ASSAY_TEXT: Tissue distribution study in mice, 20 mg/kg i.p.
- Assay type: in vivo, C57BL/6 J mice
- CONDITION_NOTES: male, C57BL/6 J, mouse, plasma, ip, 20 mg/kg, Plasma, 1 h, IP 20 mg/kg, read-out: Mean Plasma or Tissue Homogenate Conc
MEASUREMENT_KIND: concentration at 1 h (ng/mL)
Numbers only, in ng/mL.

Lab note: measured concentration at 1 h of c1ccc(-c2nnc(-c3ccccn3)nc2NC2CCCCC2)cc1 was 9150

----------
- ASSAY_TEXT: Tissue distribution study in mice, 20 mg/kg i.p.
- Type: in vivo, C57BL/6 J mice
- CONDITION_NOTES: male, C57BL/6 J, mouse, plasma, ip, 20 mg/kg, Plasma, 8 h, IP 20 mg/kg, read-out: Mean Plasma or Tissue Homogenate Conc
MEASUREMENT_KIND: concentration at 8 h
Answer with the value and then the unit.

Lab note: measured concentration at 8 h of c1ccc(-c2nnc(-c3ccccn3)nc2NC2CCCCC2)cc1 was 1030 ng/mL

----------
- ASSAY_TEXT: Tissue distribution study in mice, 20 mg/kg i.p.
- Format: in vivo, C57BL/6 J mice
- CONDITION_NOTES: male, C57BL/6J, muscle/plasma; Muscle, 4 h; mouse, IP 20 mg/kg; read-out: Mean Tissue/ Plasma Conc Ratio
MEASUREMENT_KIND: Kp at 4 h

Lab note: measured Kp at 4 h of c1ccc(-c2nnc(-c3ccccn3)nc2NC2CCCCC2)cc1 [MolPort-002-877-424, C1CCC(CC1)Nc2nc(nnc2c3ccccc3)c4ccccn4] was 0.152

----------
- ASSAY_TEXT: Mouse pharmacokinetics, 10 mg/kg i.p.
- Assay type: in vivo, CD-1 mice
- CONDITION_NOTES: CD-1, plasma, ip, 10 mg/kg intraperitoneal
MEASUREMENT_KIND: Tmax

Lab note: measured Tmax of c1ccc(-c2nnc(-c3ccccn3)nc2NC2CCCCC2)cc1 was ≤ 30 min

----------
- ASSAY_TEXT: Tissue distribution study in mice, 20 mg/kg i.p.
- Type: in vivo, C57BL/6 J mice
- CONDITION_NOTES: male, C57BL/6 J; Kidney, 4 h; mouse, IP 20 mg/kg; read-out: Mean Tissue/ Plasma Conc Ratio
MEASUREMENT_KIND: Kp at 4 h
Answers are plain numbers.

Lab note: measured Kp at 4 h of c1ccc(-c2nnc(-c3ccccn3)nc2NC2CCCCC2)cc1 was 0.801

----------
- ASSAY_TEXT: Tissue distribution study in mice, 20 mg/kg i.p.
- Assay type: in vivo, C57BL/6 J mice
- CONDITION_NOTES: male, C57BL/6 J, mouse, brain, ip, 20 mg/kg, Brain, 0.5 h, IP 20 mg/kg, read-out: Mean Tissue
MEASUREMENT_KIND: concentration at 0.5 h (ng/g)
Give bare numbers, in ng/g.

Lab note: measured concentration at 0.5 h of c1ccc(-c2nnc(-c3ccccn3)nc2NC2CCCCC2)cc1 was 1400

----------
- ASSAY_TEXT: Tissue distribution study in mice, 20 mg/kg i.p.
- Type: in vivo, C57BL/6 J mice
- CONDITION_NOTES: male, C57BL/6 J, mouse, kidney homogenate, ip, 20 mg/kg, Kidney, 2 h, IP 20 mg/kg, read-out: Mean Plasma or Tissue Homogenate Conc
MEASUREMENT_KIND: concentration at 2 h (ng/mL)
Answers are plain numbers, in ng/mL.

Lab note: measured concentration at 2 h of c1ccc(-c2nnc(-c3ccccn3)nc2NC2CCCCC2)cc1 was 1020

----------
- ASSAY_TEXT: Tissue distribution study in mice, 20 mg/kg i.p.
- Format: in vivo, C57BL/6 J mice
- CONDITION_NOTES: male, C57BL/6 J, mouse, kidney homogenate, ip, 20 mg/kg, Kidney, 2 h, IP 20 mg/kg, read-out: Plasma or Tissue Homogenate Conc (individual animals)
MEASUREMENT_KIND: concentration at 2 h (ng/mL)
Give bare numbers, in ng/mL.

Lab note: measured concentration at 2 h of c1ccc(-c2nnc(-c3ccccn3)nc2NC2CCCCC2)cc1 was 889

----------
- ASSAY_TEXT: Tissue distribution study in mice, 20 mg/kg i.p.
- Type: in vivo, C57BL/6 J mice
- CONDITION_NOTES: male, C57BL/6J, mouse, liver homogenate, ip, 20 mg/kg, Liver, 1 h, IP 20 mg/kg, read-out: Plasma or Tissue Homogenate Conc (individual animals)
MEASUREMENT_KIND: concentration at 1 h (ng/mL)
Give bare numbers, in ng/mL.

Lab note: measured concentration at 1 h of c1ccc(-c2nnc(-c3ccccn3)nc2NC2CCCCC2)cc1 was 2450

----------
- ASSAY_TEXT: Tissue distribution study in mice, 20 mg/kg i.p.
- Assay type: in vivo, C57BL/6 J mice
- CONDITION_NOTES: male, C57BL/6J, mouse, liver, ip, 20 mg/kg, Liver, 4 h, IP 20 mg/kg, read-out: Mean Tissue
MEASUREMENT_KIND: concentration at 4 h
Answer with the value and then the unit.

Lab note: measured concentration at 4 h of c1ccc(-c2nnc(-c3ccccn3)nc2NC2CCCCC2)cc1 was 2750 ng/g

----------
- ASSAY_TEXT: Tissue distribution study in mice, 20 mg/kg i.p.
- Format: in vivo, C57BL/6 J mice
- CONDITION_NOTES: male, C57BL/6 J; Brain, 0.5 h; mouse, IP 20 mg/kg; read-out: Mean Tissue/ Plasma Conc Ratio
MEASUREMENT_KIND: Kp at 0.5 h
One number for each entry.

Lab note: measured Kp at 0.5 h of c1ccc(-c2nnc(-c3ccccn3)nc2NC2CCCCC2)cc1 was 0.134

----------
- ASSAY_TEXT: Tissue distribution study in mice, 20 mg/kg i.p.
- Assay type: in vivo, C57BL/6 J mice
- CONDITION_NOTES: male, C57BL/6 J, mouse, brain, ip, 20 mg/kg, Brain, 1 h, IP 20 mg/kg, read-out: Mean Tissue
MEASUREMENT_KIND: concentration at 1 h (ng/g)
One number for each entry, in ng/g.

Lab note: measured concentration at 1 h of c1ccc(-c2nnc(-c3ccccn3)nc2NC2CCCCC2)cc1 was 1100

----------
- ASSAY_TEXT: Tissue distribution study in mice, 20 mg/kg i.p.
- Type: in vivo, C57BL/6 J mice
- CONDITION_NOTES: male, C57BL/6J, mouse, liver, ip, 20 mg/kg, Liver, 8 h, IP 20 mg/kg, read-out: Mean Tissue
MEASUREMENT_KIND: concentration at 8 h (ng/g)
Give bare numbers, in ng/g.

Lab note: measured concentration at 8 h of c1ccc(-c2nnc(-c3ccccn3)nc2NC2CCCCC2)cc1 was 1090

----------
- ASSAY_TEXT: Tissue distribution study in mice, 20 mg/kg i.p.
- Type: in vivo, C57BL/6 J mice
- CONDITION_NOTES: male, C57BL/6J, mouse, muscle, ip, 20 mg/kg, Muscle, 8 h, IP 20 mg/kg, read-out: Mean Tissue
MEASUREMENT_KIND: concentration at 8 h

Lab note: measured concentration at 8 h of c1ccc(-c2nnc(-c3ccccn3)nc2NC2CCCCC2)cc1 [MolPort-002-877-424, C1CCC(CC1)Nc2nc(nnc2c3ccccc3)c4ccccn4] was 132 ng/g
